# Assay Target: GST fusion protein containing the Met kinase domain (Homo sapiens)
# Construct: Purified GST fusion protein containing the Met kinase domain, Sugen, Inc
# Assay: MET Transphosphorylation Assay (ELISA, poly(Glu,Tyr) 4:1 substrate)
# Condition Details: met transphosphorylation of poly(glutamic acid:tyrosine 4:1) substrate; two values in a cell separated by '/'
# Procedure: MET Transphosphorylation Assay This assay is used to measure phosphotyrosine levels on a poly(glutamic acid:tyrosine (4:1)) substrate as a means for identifying agonists/antagonists of met transphosphorylation of the substrate. • 1. […] PBS, Gibco Catalog # 450-1300EB • 4. 50 mM HEPES • 5. […] Purified GST fusion protein containing the Met kinase domain, Sugen, Inc. • 7. TBST Buffer. • 8. 10% aqueous (MilliQue H2O) DMSO. • 9. […]
pIC50: −log10 of the molar value.
Kindly return met if reported pIC50 is no lower than 6; return not met if it is lower.

Compound: Cc1ccc2c(c1Br)/C(=N/NC(=O)Cc1ccc(O)cc1)C(=O)N2 [II-53]
Classification: met

Is reported pIC50 greater than or equal to 6 here: O=C(Cc1ccc(F)cc1)N/N=C1\C(=O)Nc2c(Cl)ccc(Cl)c21 [II-67] met

Is reported pIC50 greater than or equal to 6 here: O=C(Cc1ccc(O)cc1)N/N=C1\C(=O)Nc2ccc(F)cc21 [II-19] met

Is reported pIC50 greater than or equal to 6 here: COc1ccc(CC(=O)N/N=C2\C(=O)Nc3c(C)ccc(C)c32)cn1 [II-45] met

Is reported pIC50 greater than or equal to 6 here: O=C(Cc1ccc(Cl)cc1)N/N=C1\C(=O)Nc2ccccc21 [II-7] not met

Is reported pIC50 greater than or equal to 6 here: O=C(Cc1ccc(F)cc1)N/N=C1\C(=O)Nc2ccccc21 [II-27] not met

Is reported pIC50 greater than or equal to 6 here: O=C(Cc1ccccc1)N/N=C1\C(=O)Nc2ccccc21 [II-3] not met

Is reported pIC50 greater than or equal to 6 here: O=C(Cc1ccc(O)cc1)N/N=C1\C(=O)Nc2ccc(S(=O)(=O)Cc3c(Cl)cccc3Cl)cc21 [Example I-8] met

----------
# Assay Target: GST fusion protein containing the Met kinase domain (Homo sapiens)
# Construct: Purified GST fusion protein containing the Met kinase domain, Sugen, Inc
# Assay: MET Transphosphorylation Assay (ELISA, poly(Glu,Tyr) 4:1 substrate)
# Condition Details: met transphosphorylation of poly(glutamic acid:tyrosine 4:1) substrate; two values in a cell separated by '/'
pIC50: −log10 of the molar value.
Quantity Name: pIC50

Solved entries (count: 2):
Molecule: Cc1ccc(C)c2c1NC(=O)/C2=N\NC(=O)Cc1ccc(O)c(F)c1 [II-49]
pIC50: > 8.04
--
Molecule: O=C1Nc2c(Cl)ccc(Cl)c2/C1=N/NC(=O)C1Cc2ccccc2C1 [Example I-57]
pIC50: < 4.70

Enter reported pIC50 observed with GST fusion protein containing the Met kinase domain (Homo sapiens) for O=C(Cc1ccc(O)c(F)c1)N/N=C1\C(=O)Nc2c(Cl)ccc(Cl)c21 [II-55] > 8.05

----------
# Assay Target: GST fusion protein containing the Met kinase domain (Homo sapiens, UniProt P08581)
# Construct: Purified GST fusion protein containing the Met kinase domain, Sugen, Inc
# Sequence (P08581 1078-1345 limits assumed): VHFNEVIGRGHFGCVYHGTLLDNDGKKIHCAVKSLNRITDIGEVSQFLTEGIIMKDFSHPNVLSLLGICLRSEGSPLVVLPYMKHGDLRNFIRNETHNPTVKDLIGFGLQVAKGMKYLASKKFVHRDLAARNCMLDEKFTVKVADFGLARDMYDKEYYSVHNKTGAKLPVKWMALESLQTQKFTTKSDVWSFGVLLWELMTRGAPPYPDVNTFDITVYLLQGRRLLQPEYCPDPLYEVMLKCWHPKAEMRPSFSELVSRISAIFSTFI
# Assay: MET Transphosphorylation Assay (ELISA, poly(Glu,Tyr) 4:1 substrate)
# Condition Details: met transphosphorylation of poly(glutamic acid:tyrosine 4:1) substrate; two values in a cell separated by '/'
pIC50: −log10 of the molar value.
Quantity Name: pIC50

Solved entries (count: 2):
Compound String: COc1ccc(CC(=O)N/N=C2\C(=O)Nc3c(Cl)ccc(Cl)c32)cc1C
Quantity Name: pIC50
Measured Value: < 4.70

Compound String: COc1ccc(CC(=O)N/N=C2\C(=O)Nc3ccc(C(=O)O)c(Cl)c32)cc1C#N
Quantity Name: pIC50
Measured Value: < 4.70

Note: attention shifts to another entry.
For `Cc1cc(Cl)cc2c1NC(=O)/C2=N\NC(=O)Cc1ccc(O)cc1` , what is its reported pIC50? > 8.04
